# experiment-notes: Selectivity index, ratio of EC50 for human RBC to MIC for methicillin resistant Staphylococcus epidermidis RP62A ATCC 35984/CCUG 31568
# Format: toxicity
# measurement-conditions: human red blood cells (RBC), read-out: Selectivity Index
Is selectivity ratio at least 6? Then T. If not, F.

Problem: Does CC(C)(C)c1cc(C(C)(C)C)cc(S(=O)(=O)Nc2cccc(C(=O)NCCN)c2)c1.Cl have a reported selectivity ratio of at least 6?
Solution: T

Problem: Does CN(c1cccc(C(=O)NCCNC(=N)N)c1)S(=O)(=O)c1cc(C(C)(C)C)cc(C(C)(C)C)c1.Cl have a reported selectivity ratio of at least 6?
Solution: T

Problem: Does CC(C)(C)c1cc(C(C)(C)C)cc(S(=O)(=O)Nc2ccc(C(=O)NCCNC(=N)N)cc2)c1.Cl have a reported selectivity ratio of at least 6?
Solution: T

Problem: Does CN(c1cccc(C(=O)NCCN)c1)S(=O)(=O)c1cc(C(C)(C)C)cc(C(C)(C)C)c1.Cl have a reported selectivity ratio of at least 6?
Solution: F

Problem: Does CC(C)(C)c1cc(C(C)(C)C)cc(S(=O)(=O)Nc2ccccc2C(=O)NCCN)c1.Cl have a reported selectivity ratio of at least 6?
Solution: F

Problem: Does CC(C)(C)c1cc(C(C)(C)C)cc(S(=O)(=O)Nc2ccc(CC(=O)NCCN)cc2)c1.Cl have a reported selectivity ratio of at least 6?
Solution: F

* * *

Field: MIC. Provide a value for each of the compounds that follow.
# System: Escherichia coli
# experiment-notes: Antibacterial activity against Escherichia coli clinical isolates after 24 hrs by microdilution method
# Assay type: functional

Problem: What does the record list as MIC for CC(C)(C)c1cc(C(C)(C)C)cc(S(=O)(=O)Nc2cc3ccccc3cc2C(=O)NCCNC(=N)N)c1.Cl ?
Solution: 8 µg/mL

Problem: What does the record list as MIC for CN(c1cccc(C(=O)NCCNC(=N)N)c1)S(=O)(=O)c1cc(C(C)(C)C)cc(C(C)(C)C)c1.Cl ?
Solution: 32 µg/mL

Problem: What does the record list as MIC for CC(C)(C)c1cc(C(C)(C)C)cc(S(=O)(=O)NCc2ccc(C(=O)NCCNC(=N)N)cc2)c1.Cl ?
Solution: 128 µg/mL

Problem: What does the record list as MIC for Cl.N=C(N)NCCNC(=O)c1ccc(NS(=O)(=O)c2ccc3ccccc3c2)cc1 ?
Solution: > 128 µg/mL

* * *

# System: Staphylococcus aureus
# experiment-notes: Antibacterial activity against Staphylococcus aureus ATCC 9144 after 48 hrs by microdilution method
# Type: functional
# measurement-conditions: ATCC 9144, 48 h
experimental-readout: MIC (µg/mL)
The figure you give is taken to be in µg/mL; do not add the unit.

Problem: What does the record list as MIC for CC(C)(C)c1cc(C(C)(C)C)cc(S(=O)(=O)Nc2ccc(C(=O)NCCN)cc2)c1.Cl ?
Solution: 32

Problem: What does the record list as MIC for CC(C)(C)c1cc(C(C)(C)C)cc(S(=O)(=O)Nc2ccc(CC(=O)NCCNC(=N)N)cc2)c1.Cl ?
Solution: 16

Problem: What does the record list as MIC for CC(C)(C)c1cc(C(C)(C)C)cc(S(=O)(=O)Nc2cccc(C(=O)NCCN)c2)c1.Cl ?
Solution: 16

Problem: What does the record list as MIC for CC(C)(C)c1cc(C(C)(C)C)cc(S(=O)(=O)Nc2ccc(C(=O)NCCNC(=N)N)cc2)c1.Cl ?
Solution: 4

Problem: What does the record list as MIC for CC(C)(C)c1cc(C(C)(C)C)cc(S(=O)(=O)Nc2cc3ccccc3cc2C(=O)NCCN)c1.Cl ?
Solution: 4

Problem: What does the record list as MIC for CC(C)(C)c1cc(C(C)(C)C)cc(S(=O)(=O)NCCCCNC(=N)N)c1.Cl ?
Solution: 8

Problem: What does the record list as MIC for COc1c(C(C)(C)C)cc(S(=O)(=O)Nc2ccc(C(=O)NCCNC(=N)N)cc2)cc1C(C)(C)C.Cl ?
Solution: 4

Problem: What does the record list as MIC for CN(c1cccc(C(=O)NCCNC(=N)N)c1)S(=O)(=O)c1cc(C(C)(C)C)cc(C(C)(C)C)c1.Cl ?
Solution: 4

* * *

# experiment-notes: Selectivity index, ratio of EC50 for human RBC to MIC for methicillin resistant Staphylococcus epidermidis RP62A ATCC 35984/CCUG 31568
# Type: toxicity
# measurement-conditions: human red blood cells (RBC), read-out: Selectivity Index
Field: selectivity ratio. Provide a value for each of the molecules that follow.
Respond using a number only.

Problem: What does the record list as selectivity ratio for CN(c1ccc(C(=O)NCCN)cc1)S(=O)(=O)c1cc(C(C)(C)C)cc(C(C)(C)C)c1.Cl ?
Solution: 3

Problem: What does the record list as selectivity ratio for CC(C)(C)c1cc(C(C)(C)C)cc(S(=O)(=O)N2CCC(C(=O)NCCNC(=N)N)CC2)c1.Cl ?
Solution: 8

Problem: What does the record list as selectivity ratio for CC(C)(C)c1cc(C(C)(C)C)cc(S(=O)(=O)Nc2ccccc2C(=O)NCCNC(=N)N)c1.Cl ?
Solution: 10

Problem: What does the record list as selectivity ratio for CC(C)(C)c1cc(C(C)(C)C)cc(S(=O)(=O)NCc2ccc(C(=O)NCCNC(=N)N)cc2)c1.Cl ?
Solution: 14

* * *

# Tested on: Erythrocyte
# experiment-notes: Hemolytic activity against human RBC measured after 1 hr
# Format: cell-based
The threshold is 60 µg/mL. Values of EC50 beneath it are tagged YES; values meeting or exceeding it are tagged NO.

Problem: Bench note: check whether CC(C)(C)c1cc(C(C)(C)C)cc(S(=O)(=O)Nc2ccc(CC(=O)NCCNC(=N)N)cc2)c1.Cl shows EC50 below 60 µg/mL
Solution: NO

Problem: Bench note: check whether COc1c(C(C)(C)C)cc(S(=O)(=O)Nc2ccc(C(=O)NCCNC(=N)N)cc2)cc1C(C)(C)C.Cl shows EC50 below 60 µg/mL
Solution: NO

Problem: Bench note: check whether CC(C)(C)c1cc(C(C)(C)C)cc(S(=O)(=O)Nc2cccc(C(=O)NCCNC(=N)N)c2)c1.Cl shows EC50 below 60 µg/mL
Solution: NO

Problem: Bench note: check whether CC(C)(C)c1cc(C(C)(C)C)cc(S(=O)(=O)Nc2cc3ccccc3cc2C(=O)NCCN)c1.Cl shows EC50 below 60 µg/mL
Solution: YES

Problem: Bench note: check whether CC(C)(C)c1cc(C(C)(C)C)cc(S(=O)(=O)Nc2ccccc2C(=O)NCCNC(=N)N)c1.Cl shows EC50 below 60 µg/mL
Solution: NO

Problem: Bench note: check whether Cc1cc(C)cc(S(=O)(=O)Nc2ccc(C(=O)NCCNC(=N)N)cc2)c1.Cl shows EC50 below 60 µg/mL
Solution: NO

Problem: Bench note: check whether CN(c1cccc(C(=O)NCCNC(=N)N)c1)S(=O)(=O)c1cc(C(C)(C)C)cc(C(C)(C)C)c1.Cl shows EC50 below 60 µg/mL
Solution: NO

Problem: Bench note: check whether CC(C)(C)c1cc(C(C)(C)C)cc(S(=O)(=O)NCc2ccc(C(=O)NCCN)cc2)c1.Cl shows EC50 below 60 µg/mL
Solution: NO

Problem: Bench note: check whether Cl.N=C(N)NCCNC(=O)c1ccc(NS(=O)(=O)c2cc(C(F)(F)F)cc(C(F)(F)F)c2)cc1 shows EC50 below 60 µg/mL
Solution: NO

Problem: Bench note: check whether CC(C)(C)c1cc(C(C)(C)C)cc(S(=O)(=O)N2CCC(C(=O)NCCNC(=N)N)CC2)c1.Cl shows EC50 below 60 µg/mL
Solution: NO

Problem: Bench note: check whether CN(c1ccc(C(=O)NCCN)cc1)S(=O)(=O)c1cc(C(C)(C)C)cc(C(C)(C)C)c1.Cl shows EC50 below 60 µg/mL
Solution: YES

Problem: Bench note: check whether CC(C)(C)c1cc(C(C)(C)C)cc(S(=O)(=O)N2CCC[C@H]2C(=O)NCCNC(=N)N)c1.Cl shows EC50 below 60 µg/mL
Solution: NO

Problem: Bench note: check whether CN(c1cccc(C(=O)NCCN)c1)S(=O)(=O)c1cc(C(C)(C)C)cc(C(C)(C)C)c1.Cl shows EC50 below 60 µg/mL
Solution: YES

Problem: Bench note: check whether CC(C)(C)c1cc(C(C)(C)C)cc(S(=O)(=O)Nc2cc3ccccc3cc2C(=O)NCCNC(=N)N)c1.Cl shows EC50 below 60 µg/mL
Solution: YES

Problem: Bench note: check whether CN(c1ccc(C(=O)NCCCN)cc1)S(=O)(=O)c1cc(C(C)(C)C)cc(C(C)(C)C)c1.Cl shows EC50 below 60 µg/mL
Solution: YES

Problem: Bench note: check whether CC(C)(C)c1cc(C(C)(C)C)cc(S(=O)(=O)Nc2cccc(C(=O)NCCN)c2)c1.Cl shows EC50 below 60 µg/mL
Solution: YES

Problem: Bench note: check whether CN(c1ccc(C(=O)NCCCNC(=N)N)cc1)S(=O)(=O)c1cc(C(C)(C)C)cc(C(C)(C)C)c1.Cl shows EC50 below 60 µg/mL
Solution: YES

Problem: Bench note: check whether CC(C)(C)c1cc(C(C)(C)C)cc(S(=O)(=O)Nc2ccccc2C(=O)NCCN)c1.Cl shows EC50 below 60 µg/mL
Solution: YES

Problem: Bench note: check whether CC(C)(C)c1cc(C(C)(C)C)cc(S(=O)(=O)NCCCCNC(=N)N)c1.Cl shows EC50 below 60 µg/mL
Solution: NO

Problem: Bench note: check whether Cl.N=C(N)NCCNC(=O)c1ccc(NS(=O)(=O)c2ccc3ccccc3c2)cc1 shows EC50 below 60 µg/mL
Solution: NO

Problem: Bench note: check whether CC(C)(C)c1cc(C(C)(C)C)cc(S(=O)(=O)NCc2ccc(C(=O)NCCNC(=N)N)cc2)c1.Cl shows EC50 below 60 µg/mL
Solution: NO

Problem: Bench note: check whether CC(C)(C)c1cc(C(C)(C)C)cc(S(=O)(=O)Nc2ccc(C(=O)NCCNC(=N)N)cc2)c1.Cl shows EC50 below 60 µg/mL
Solution: NO

Problem: Bench note: check whether CC(C)(C)c1cc(C(C)(C)C)cc(S(=O)(=O)Nc2ccc(C(=O)NCCN)cc2)c1.Cl shows EC50 below 60 µg/mL
Solution: NO

Problem: Bench note: check whether CC(C)(C)c1cc(C(C)(C)C)cc(S(=O)(=O)Nc2ccc(CC(=O)NCCN)cc2)c1.Cl shows EC50 below 60 µg/mL
Solution: NO

Problem: Bench note: check whether CN(c1ccc(C(=O)NCCNC(=N)N)cc1)S(=O)(=O)c1cc(C(C)(C)C)cc(C(C)(C)C)c1.Cl shows EC50 below 60 µg/mL
Solution: YES

Problem: Bench note: check whether Cc1cc(C(=O)NCCNC(=N)N)ccc1NS(=O)(=O)c1cc(C(C)(C)C)cc(C(C)(C)C)c1.Cl shows EC50 below 60 µg/mL
Solution: NO
